meta.source: patent US9193722B2

- study_system: PKC alpha kinase (Homo sapiens)
Ki values, listed per item

-- ask Supply reported Ki belonging to this compound: CC(C)C(O)C1CN(c2ccc(F)c(-c3n[nH]c4ncccc34)n2)CCN1 (stereo not shown)
-- reply < 2800 nM

-- ask Consider the compound CCCC1(CN)CN(c2ccc(C(F)(F)F)c(-c3n[nH]c4ncccc34)n2)CCO1 (stereo not shown) and give its recorded Ki.
-- reply < 2800 nM

-- ask Tell me its Ki given CC(C)CC1(N)CCCN(c2ccc(F)c(-c3n[nH]c4ncccc34)n2)C1 (stereo not shown) as the entry.
-- reply > 1250 nM

-- ask Quote Ki reported for CC(C)C(C)(O)[C@H]1CCCN(c2ccc(F)c(-c3n[nH]c4ncccc34)n2)C1 (stereo partly shown) please.
-- reply > 1250 nM
